Entries with reported MIC on Salmonella typhimurium XNAA5 (St)

Use these answered entries as a reference point.
Nc1cc(-c2[nH]c(N)nc2-c2ccc(OCc3ccc(F)cc3)cc2)ccn1 = ≤ 1 µM
Cc1cc(-c2[nH]c(N)nc2-c2ccc3c(c2)CCO3)ccn1 = ≤ 1 µM
Cc1cc(-c2nc(N)[nH]c2-c2ccc(Cl)cc2)ccn1 = 1 to 10 µM

// below: MIC requested for another molecule
**Query** For the molecule `CNc1cc(-c2[nH]c(N)nc2-c2ccc3c(c2)CCO3)ccn1` , report MIC.
**Result** ≤ 1 µM

Recorded values, source patent US11345694B2.
